Provenance of the data: the supplement of paper PMC9112550

Quick reference: shrunken log2 fold change of the listed items.
- System: Escherichia coli TOP10
- Test Name: shrunken log2 fold change of peptide-encoding DNA abundance (4.5 h post-induction vs induction); higher = less antimicrobial activity (less host growth inhibition)
- Test Context: time post-induction: 4.5 h; library: site-saturation at positions 5, 18, 19, 20
Lab note: write the figure by itself, no unit.

input: Consider the sequence RRIRARPPRLPRPRPRPDPKPRP and give its measured shrunken log2 fold change.
output: 0.268

input: # get_value(readout='shrunken log2 fold change', item= RRIRCRPPRLPRPRPRPNMKPRP )
output: -0.769

input: For RRIRERPPRLPRPRPRPCREPRP , what is its reported shrunken log2 fold change?
output: -0.129

---

Quick reference for shrunken log2 fold change among some sequences
- System: Escherichia coli TOP10
- Test Name: shrunken log2 fold change of peptide-encoding DNA abundance (4.5 h post-induction vs induction); higher = less antimicrobial activity (less host growth inhibition)
- Test Context: time post-induction: 4.5 h; library: site-saturation at positions 5, 18, 19, 20

RRIRGRPPRLPRPRPRPKPWPRP = 0.914
RRIRMRPPRLPRPRPRPKSSPRP = 0.763
RRIRTRPPRLPRPRPRPENVPRP = -0.0181
RRIRDRPPRLPRPRPRPGWYPRP = 0.178
RRIRVRPPRLPRPRPRPQAGPRP = 0.0465

input: I would be grateful if you could share the reported shrunken log2 fold change for RRIRLRPPRLPRPRPRPYDNPRP .
output: -1.57

input: Consider the sequence RRIRTRPPRLPRPRPRPSQGPRP and give its measured shrunken log2 fold change.
output: 0.144

input: Entry under review: RRIRVRPPRLPRPRPRPCPAPRP . Reported shrunken log2 fold change?
output: -0.121

---

Listed next: entries and their corresponding shrunken log2 fold change.
- System: Escherichia coli TOP10
- Test Name: shrunken log2 fold change of peptide-encoding DNA abundance (4.5 h post-induction vs induction); higher = less antimicrobial activity (less host growth inhibition)
- Test Context: time post-induction: 4.5 h; library: site-saturation at positions 5, 18, 19, 20

Previously resolved entries follow.
RRIRHRPPRLPRPRPRPVEKPRP = -0.0342
RRIRFRPPRLPRPRPRPVQDPRP = -0.209
RRIRPRPPRLPRPRPRPDHVPRP = -0.474
RRIRGRPPRLPRPRPRPTNEPRP = 0.46

input: Reported shrunken log2 fold change for RRIRYRPPRLPRPRPRPTTCPRP : what is it?
output: -0.923

input: What value of shrunken log2 fold change has been reported for the following sequence? RRIRARPPRLPRPRPRPEWCPRP
output: 0.72

input: Look at this sequence and give its reported shrunken log2 fold change. RRIRWRPPRLPRPRPRPPLIPRP
output: -0.0843

input: Item RRIRRRPPRLPRPRPRPLYIPRP has what recorded shrunken log2 fold change?
output: -0.466

input: Please give the measured shrunken log2 fold change for this sequence: RRIRRRPPRLPRPRPRPRFEPRP
output: 0.582

input: Recorded shrunken log2 fold change of RRIRVRPPRLPRPRPRPGKMPRP , please.
output: -0.0672

input: If you can, please state the reported shrunken log2 fold change value of RRIRFRPPRLPRPRPRPYVMPRP .
output: -0.651

input: Field request: shrunken log2 fold change | item: RRIRNRPPRLPRPRPRPVAQPRP
output: 0.089

input: // shrunken log2 fold change lookup, key: RRIRKRPPRLPRPRPRPMVEPRP
output: 0.0956

input: Fill blank: measured shrunken log2 fold change of the sequence RRIRLRPPRLPRPRPRPGTQPRP is ____.
output: -0.0907

input: # get_value(readout='shrunken log2 fold change', item= RRIRCRPPRLPRPRPRPLWQPRP )
output: -0.147

input: Quick one: shrunken log2 fold change of RRIRVRPPRLPRPRPRPPCCPRP ?
output: 0.117

input: Reported shrunken log2 fold change, sequence RRIRHRPPRLPRPRPRPQVFPRP : ____
output: -0.00865

---

- System: Escherichia coli TOP10
- Test Name: shrunken log2 fold change of peptide-encoding DNA abundance (4.5 h post-induction vs induction); higher = less antimicrobial activity (less host growth inhibition)
- Test Context: time post-induction: 4.5 h; library: site-saturation at positions 5, 18, 19, 20
Recorded measurements of shrunken log2 fold change, one per entry
Form: value (number only, do not type unit).

RRIRERPPRLPRPRPRPDPRPRP = 0.768
RRIRSRPPRLPRPRPRPLGLPRP = 0.204
RRIRWRPPRLPRPRPRPEFMPRP = 0.635
RRIRARPPRLPRPRPRPYETPRP = -0.0398
RRIRSRPPRLPRPRPRPKLTPRP = -0.06
RRIRTRPPRLPRPRPRPGKQPRP = -0.184

input: Give the measured shrunken log2 fold change of RRIRIRPPRLPRPRPRPQAGPRP .
output: -0.16

input: What does the data say about its shrunken log2 fold change? Entry: RRIRYRPPRLPRPRPRPFCHPRP
output: -0.239

---

- Tested on: Escherichia coli TOP10
- Test Name: shrunken log2 fold change of peptide-encoding DNA abundance (4.5 h post-induction vs induction); higher = less antimicrobial activity (less host growth inhibition)
- Test Context: time post-induction: 4.5 h; library: site-saturation at positions 5, 18, 19, 20
Result Type: shrunken log2 fold change
The reply should be a number, written without any unit.

Example entries begin here.
RRIRHRPPRLPRPRPRPISWPRP = -0.245
RRIRCRPPRLPRPRPRPHTMPRP = -0.371
RRIRSRPPRLPRPRPRPLKVPRP = -0.0229
RRIRERPPRLPRPRPRPMQKPRP = 0.0175
RRIRKRPPRLPRPRPRPNSFPRP = -0.234
RRIRQRPPRLPRPRPRPYSWPRP = 0.0415
RRIRRRPPRLPRPRPRPNAFPRP = -0.0721

input: Which shrunken log2 fold change is reported for this sequence? RRIRKRPPRLPRPRPRPFGHPRP
output: -0.00208

---

- System: Escherichia coli TOP10
- Test Name: shrunken log2 fold change of peptide-encoding DNA abundance (4.5 h post-induction vs induction); higher = less antimicrobial activity (less host growth inhibition)
- Test Context: time post-induction: 4.5 h; library: site-saturation at positions 5, 18, 19, 20
Consider the following sequences and their measured shrunken log2 fold change readings.
// print number alone

Consider the following illustrative entries.
RRIRWRPPRLPRPRPRPTSMPRP = -0.0665
RRIRRRPPRLPRPRPRPIDWPRP = 0.122
RRIRVRPPRLPRPRPRPHCKPRP = -0.299
RRIRFRPPRLPRPRPRPSNFPRP = -0.129

input: Find the recorded shrunken log2 fold change belonging to RRIRCRPPRLPRPRPRPYFSPRP and report it.
output: -0.135

input: Please give the measured shrunken log2 fold change for this sequence: RRIRHRPPRLPRPRPRPNQRPRP
output: 0.333

input: Look up shrunken log2 fold change: RRIRARPPRLPRPRPRPYQEPRP
output: 0.0175

---

// reported shrunken log2 fold change per item
- System: Escherichia coli TOP10
- Test Name: shrunken log2 fold change of peptide-encoding DNA abundance (4.5 h post-induction vs induction); higher = less antimicrobial activity (less host growth inhibition)
- Test Context: time post-induction: 4.5 h; library: site-saturation at positions 5, 18, 19, 20
# answer = number (no unit)

// known answers, use as guide
RRIRKRPPRLPRPRPRPFADPRP = 0.00902
RRIRRRPPRLPRPRPRPHNLPRP = -0.176

input: Looking for the measured shrunken log2 fold change of RRIRIRPPRLPRPRPRPQWEPRP , can you help?
output: -0.0938

input: For the sequence shown here, RRIRKRPPRLPRPRPRPLRDPRP , give the reported shrunken log2 fold change.
output: 0.757

input: # query: shrunken log2 fold change of entry RRIRDRPPRLPRPRPRPHEPPRP
output: 0.211

input: Any idea what shrunken log2 fold change was measured for RRIRMRPPRLPRPRPRPDVYPRP ?
output: -0.119

---

- Test system: Escherichia coli TOP10
- Test Name: shrunken log2 fold change of peptide-encoding DNA abundance (4.5 h post-induction vs induction); higher = less antimicrobial activity (less host growth inhibition)
- Test Context: time post-induction: 4.5 h; library: site-saturation at positions 5, 18, 19, 20
Collected shrunken log2 fold change values appear next to each entry.
A bare number is all that is needed in reply.

RRIRSRPPRLPRPRPRPQPTPRP = 0.447
RRIRRRPPRLPRPRPRPPVLPRP = 0.18
RRIRTRPPRLPRPRPRPYAIPRP = -0.000694
RRIRRRPPRLPRPRPRPMGCPRP = -0.0336
RRIRYRPPRLPRPRPRPQFGPRP = 0.03

input: Request body: readout shrunken log2 fold change, system Escherichia coli TOP10, query RRIRSRPPRLPRPRPRPIYLPRP . Return the value.
output: -0.336

input: Value wanted: shrunken log2 fold change (Escherichia coli TOP10) of entry RRIRERPPRLPRPRPRPYKTPRP
output: -0.00814

input: Please state recorded shrunken log2 fold change (tested on Escherichia coli TOP10) of RRIRQRPPRLPRPRPRPQLVPRP;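 further: peptides expressed intracellularly from a pBAD plasmid library in pooled LB shake-flask culture, induced with 0.3% L-arabinose, DNA abundance read by NGS, three biological replicates, DESeq2 with apeglm shrinkage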
output: 0.128

input: Under Escherichia coli TOP10: shrunken log2 fold change value of RRIRTRPPRLPRPRPRPMWRPRP ?
output: -0.0938

input: Given the entry RRIRHRPPRLPRPRPRPQPGPRP , what shrunken log2 fold change was observed with Escherichia coli TOP10?
output: -0.0184
